- test_protocol: chemical genetic growth profiling, strain panel (AID 1159580);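 also: tested at 20 µM; growth read once vehicle control cultures reached saturation at 30 °C; lower values mean less growth of the strain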
- condition_label: S. cerevisiae deletion strains, growth OD, locus YDR318W, strain mcm21, stronger effect = lower value
In all, about 5,500 compounds went through this assay and about 2,000 (36%) were called active. Another 18% or so got no clear call; they are omitted. The list shows a part of the results.
We label by threshold. Values of normalized growth strictly beneath 1 are Criterion met. Values of 1 and up are Criterion not met.

| compound | label_value |
| --- | --- |
| N[C@H](Cc1cc(I)c(Oc2ccc(O)c(I)c2)c(I)c1)C(=O)O | Criterion met |
| CCCCCC1C(=O)CCC1CC(=O)OC (centres undefined) | Criterion met |
| CCCC(CCC)C(=O)O | Criterion met |
| CC1(C)C(O)CC(O)C2(C)C1CC(O)C1(C)C2CCC2(C)C(c3ccoc3)OC(=O)C3OC321 (centres undefined) | Criterion not met |
| O=c1cc(-c2ccccc2)oc2cc(O)c(O)c(O)c12 | Criterion met |
| C[C@H](CCC(=O)O)[C@H]1CCC2C3C(CC[C@@]21C)[C@@]1(C)CC[C@@H](O)C[C@H]1C[C@H]3O (some centres undefined) | Criterion not met |
| CN(C)CCOC(=O)COc1ccc(Cl)cc1 | Criterion not met |
